Reported # of clones values are given for each entry in this list.
Assayed system: T1, mouse RFPL4, full-length (amino acid residues 1-287) (mouse, UniProt Q8VH31 1-287)
T1 construct: One entry is used for all tagged forms; CHO cells: C-terminal FLAG (pCMV-Tag4A) or C-terminal MYC (pCMV-Tag5A); Western blot: endogenous protein in mouse tissue lysates; also called mRFPL4; pGBKT7-RFPL4
T1 sequence (looked up): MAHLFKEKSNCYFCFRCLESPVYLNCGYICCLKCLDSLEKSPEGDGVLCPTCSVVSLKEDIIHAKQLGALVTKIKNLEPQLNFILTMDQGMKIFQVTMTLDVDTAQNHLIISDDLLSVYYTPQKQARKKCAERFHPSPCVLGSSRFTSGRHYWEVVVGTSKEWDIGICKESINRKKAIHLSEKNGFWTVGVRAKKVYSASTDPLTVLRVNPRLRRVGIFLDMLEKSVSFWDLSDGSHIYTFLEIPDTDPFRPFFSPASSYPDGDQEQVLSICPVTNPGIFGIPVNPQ
Procedure details: yeast two-hybrid mating screen of the ovary cDNA library with pGBKT7-RFPL4 as bait
Reported metric: # of clones

- ATP synthase, H+ transporting, mitochondrial F0 complex, subunit F (ATP5J) (other, mouse, UniProt P97450 1-108, looked up, Prey from the ovary cDNA library (pGADT7)) MVLQRIFRLSSVLRSAVSVHLKRNIGVTAVAFNKELDPVQKLFVDKIREYKSKRQASGGPVDIGPEYQQDLDRELYKLKQMYGKGEMDTFPTFKFDDPKFEVIDKPQS: 1 clones
- Microfibrillar-associated protein 2 (MFAP2) (other, mouse, UniProt P55002 17-183, looked up, Prey from the ovary cDNA library (pGADT7)) QGQYDLDPLPPFPDHVQYNHYGDQIDNADYYDYQEVSPRTPEEQFQSQQQVQQEVIPAPTPEPAAAGDLETEPTEPGPLDCREEQYPCTRLYSIHKPCKQCLNEVCFYSLRRVYVVNKEICVRTVCAHEELLRADLCRDKFSKCGVMAVSGLCQSVAASCARSCGGC: 1 clones
- proteasome subunit β, type 1 (PSMB1) (other, mouse, UniProt O09061 1-240, looked up, In vitro: HA tagged; CHO cells: C-terminal MYC tag; 25 kDa; also called Proteasome beta type 1 subunit (PSMB1); pGADT7-PSMB1) MLSTAAYRDVERELGMGPHGSAGPVQLRFSPYAFNGGTVLAIAGEDFSIVASDTRLSEGFSIHTRDSPKCYKLTDKTVIGCSGFHGDCLTLTKIIEARLKMYKHSNNKAMTTGAIAAMLSTILYSRRFFPYYVYNIIGGLDEEGKGAVYSFDPVGSYQRDSFKAGGSASAMLQPLLDNQVGFKNMQNVEHVPLTLDRAMRLVKDVFISAAERDVYTGDALRICIVTKEGIREETVPLRKD: 7 clones
